The origin of these recorded values is the kinase profiling compilation of Christmann-Franck et al. (2016).

# Measured On: UniProt:O15146
# Sequence (O15146 whole entry, looked up): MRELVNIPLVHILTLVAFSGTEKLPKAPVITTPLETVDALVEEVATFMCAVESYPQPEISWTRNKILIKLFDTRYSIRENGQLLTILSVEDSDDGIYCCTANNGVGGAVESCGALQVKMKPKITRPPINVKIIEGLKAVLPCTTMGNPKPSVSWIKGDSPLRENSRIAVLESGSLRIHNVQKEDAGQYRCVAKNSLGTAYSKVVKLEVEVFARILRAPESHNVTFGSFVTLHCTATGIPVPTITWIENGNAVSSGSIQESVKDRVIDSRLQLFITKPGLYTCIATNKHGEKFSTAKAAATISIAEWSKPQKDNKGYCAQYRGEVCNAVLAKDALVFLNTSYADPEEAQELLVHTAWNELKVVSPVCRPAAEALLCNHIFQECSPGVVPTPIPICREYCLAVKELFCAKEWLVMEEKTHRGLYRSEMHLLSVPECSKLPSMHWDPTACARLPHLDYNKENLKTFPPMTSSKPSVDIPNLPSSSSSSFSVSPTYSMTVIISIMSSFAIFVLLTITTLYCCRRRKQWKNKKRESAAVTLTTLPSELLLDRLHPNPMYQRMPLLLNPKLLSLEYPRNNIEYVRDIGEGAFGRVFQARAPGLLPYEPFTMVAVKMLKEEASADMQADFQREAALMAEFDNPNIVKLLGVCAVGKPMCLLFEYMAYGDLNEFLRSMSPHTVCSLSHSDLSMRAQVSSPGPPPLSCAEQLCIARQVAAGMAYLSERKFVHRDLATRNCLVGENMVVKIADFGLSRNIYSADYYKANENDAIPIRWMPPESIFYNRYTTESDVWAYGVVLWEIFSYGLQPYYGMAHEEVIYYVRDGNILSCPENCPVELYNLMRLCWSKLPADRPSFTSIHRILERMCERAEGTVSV
# Assay Notes: radiometric filter-binding kinase assay, Kinase HotSpot
# Condition: compound 0.5 µM; ATP 10 µM
Please go through the items and note down their residual activity.
Please state the figure in %; there is no need to write the unit.

# input molecule: `CCC(=O)Nc1ccc2ncnc(Nc3cccc(Br)c3)c2c1` ; wanted: its residual activity
87.8

# input molecule: `O=C1NC(=O)c2c1c1c3ccccc3n3c1c1c2c2ccccc2n1C1CCC3O1` ; wanted: its residual activity
25.8

# input molecule: `CCOC(=O)c1c(C)[nH]c(/C=C2\C(=O)Nc3ccccc32)c1C` ; wanted: its residual activity
88.7

# input molecule: `CNc1cc2c(Nc3cccc(Br)c3)ncnc2cn1` ; wanted: its residual activity
81.3

# input molecule: `c1ccc(-c2n[nH]c3c2oc2ccccc23)cc1` ; wanted: its residual activity
72.6

# input molecule: `CC(=O)c1ccc(N2CCOCC2)cc1O` ; wanted: its residual activity
93.9

* * *

# Measured On: PTK6 (human)
# Assay Notes: radiometric filter-binding kinase assay, Kinase HotSpot
# Condition: compound 0.5 µM; ATP 10 µM
Criterion: residual activity meeting or surpassing 90%. Met: 1. Not met: 0.

Exam item: decide whether the reported residual activity for `Nc1cccc(-c2cc3c(Oc4cccc(O)c4)ncnc3[nH]2)c1` is at least 90%.
0

Exam item: decide whether the reported residual activity for `COc1ccc(COc2ccc(Cc3cnc(N)nc3N)cc2OC)cc1` is at least 90%.
1

Exam item: decide whether the reported residual activity for `O=C(Nc1cccc(Nc2nccc(Nc3cccc(C(F)(F)F)c3)n2)c1)C1CC1` is at least 90%.
0

Exam item: decide whether the reported residual activity for `Cc1ccc(S(=O)(=O)/C=C/C#N)cc1` is at least 90%.
1

Exam item: decide whether the reported residual activity for `CCN(CC)CCNC(=O)c1c(C)[nH]c(/C=C2\C(=O)Nc3ccc(F)cc32)c1C` is at least 90%.
0

Exam item: decide whether the reported residual activity for `CCC(=O)Nc1ccc2ncnc(Nc3cccc(Br)c3)c2c1` is at least 90%.
0

* * *

# Measured On: AKT1 (human)
# Assay Notes: radiometric filter-binding kinase assay, Kinase HotSpot
# Condition: compound 0.5 µM; ATP 10 µM
Test Readout: residual activity (%)
Please state the figure in %; there is no need to write the unit.

Look up residual activity with AKT1 (human) for this compound: `Oc1cccc(-c2nc(N3CCOCC3)c3oc4ncccc4c3n2)c1`
95.3

Look up residual activity with AKT1 (human) for this compound: `O=C1NC(=O)/C(=C/c2ccc3c(c2)OC(F)(F)O3)S1`
98.2

Look up residual activity with AKT1 (human) for this compound: `Nc1ncnc2[nH]nc(Nc3ccc(F)cc3)c12`
93.3

Look up residual activity with AKT1 (human) for this compound: `Cc1ccc(S(=O)(=O)/C=C/C#N)cc1`
112

Look up residual activity with AKT1 (human) for this compound: `O=C1Nc2ccc(Cl)cc2/C1=C/c1cc(Cl)c(O)c(Cl)c1`
97.9

Look up residual activity with AKT1 (human) for this compound: `Cc1[nH]c(/C=C2\C(=O)Nc3ccc(S(=O)(=O)N(C)c4cccc(Cl)c4)cc32)c(C)c1C(=O)N1CCN(C)CC1`
98.8

* * *

# Measured On: UniProt P51813
# Sequence (P51813 whole entry, looked up): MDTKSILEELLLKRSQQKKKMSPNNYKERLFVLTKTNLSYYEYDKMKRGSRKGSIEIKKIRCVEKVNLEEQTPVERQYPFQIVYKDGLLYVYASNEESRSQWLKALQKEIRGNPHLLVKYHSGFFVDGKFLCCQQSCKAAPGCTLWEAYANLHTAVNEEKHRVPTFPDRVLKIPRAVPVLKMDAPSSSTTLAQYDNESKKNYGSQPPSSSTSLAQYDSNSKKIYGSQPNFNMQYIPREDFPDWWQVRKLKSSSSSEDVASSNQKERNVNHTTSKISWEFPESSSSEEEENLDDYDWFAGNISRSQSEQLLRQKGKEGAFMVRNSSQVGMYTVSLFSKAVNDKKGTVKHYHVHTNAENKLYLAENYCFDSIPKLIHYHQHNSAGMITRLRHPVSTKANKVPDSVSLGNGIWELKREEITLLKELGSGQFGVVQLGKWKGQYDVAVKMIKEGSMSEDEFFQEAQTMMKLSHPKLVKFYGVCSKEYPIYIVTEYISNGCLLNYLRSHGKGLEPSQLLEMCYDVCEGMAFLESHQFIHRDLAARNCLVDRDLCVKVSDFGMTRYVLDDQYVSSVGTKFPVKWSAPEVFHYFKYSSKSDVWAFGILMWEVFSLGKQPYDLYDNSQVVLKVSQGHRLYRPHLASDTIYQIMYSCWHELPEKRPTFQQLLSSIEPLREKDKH
# Assay Notes: radiometric filter-binding kinase assay, Kinase HotSpot
# Condition: compound 0.5 µM; ATP 10 µM
Test Readout: residual activity (%)
Please state the figure in %; there is no need to write the unit.

# input molecule: `CCN(CC)CCNC(=O)c1c(C)[nH]c(/C=C2\C(=O)Nc3ccc(Cl)cc32)c1C` ; wanted: its residual activity
99.3

# input molecule: `COc1ccc2c(c[n+](C)c3c4cc5c(cc4ccc23)OCO5)c1OC` ; wanted: its residual activity
104

# input molecule: `Cc1ccc(NC2=CC(=O)c3sc(C)nc3C2=O)cc1` ; wanted: its residual activity
100

# input molecule: `N#C/C(=C(/N)Sc1ccc(N)cc1)c1ccccc1C(F)(F)F` ; wanted: its residual activity
99.7

# input molecule: `CCC(=O)Nc1ccc2ncnc(Nc3cccc(Br)c3)c2c1` ; wanted: its residual activity
98.7

# input molecule: `O=C1Nc2ccc(Cl)cc2/C1=C/c1cc(Cl)c(O)c(Cl)c1` ; wanted: its residual activity
94.8

# input molecule: `CNC(=O)c1cc(Oc2ccc(NC(=O)Nc3ccc(Cl)c(C(F)(F)F)c3)cc2)ccn1` ; wanted: its residual activity
93.3

# input molecule: `O=C1NC(=O)C(c2cn(CCCn3ccnc3)c3ccccc23)=C1Nc1ccccc1` ; wanted: its residual activity
90

# input molecule: `Oc1cccc(-c2nc(N3CCOCC3)c3oc4ncccc4c3n2)c1` ; wanted: its residual activity
101

# input molecule: `CC(C)N(CCC(=O)c1ccc2ccccc2c1)Cc1ccccc1` ; wanted: its residual activity
102

# input molecule: `Cc1ccc(S(=O)(=O)/C=C/C#N)cc1` ; wanted: its residual activity
105

# input molecule: `Nc1cccc(-c2cc3c(Oc4cccc(O)c4)ncnc3[nH]2)c1` ; wanted: its residual activity
24.3

# input molecule: `O=C(Nc1cccc(Nc2nccc(Nc3cccc(C(F)(F)F)c3)n2)c1)C1CC1` ; wanted: its residual activity
83.6

# input molecule: `COc1ccc(COc2ccc(Cc3cnc(N)nc3N)cc2OC)cc1` ; wanted: its residual activity
93.4

# input molecule: `CNc1cc2c(Nc3cccc(Br)c3)ncnc2cn1` ; wanted: its residual activity
93.9

# input molecule: `c1ccc(-c2n[nH]cc2-c2ccnc3ccccc23)nc1` ; wanted: its residual activity
89.2

# input molecule: `CC#CC(=O)Nc1cc2c(Nc3ccc(F)c(Cl)c3)ncnc2cn1` ; wanted: its residual activity
2.54

# input molecule: `O=C1NC(=O)/C(=C/c2ccc3c(c2)OC(F)(F)O3)S1` ; wanted: its residual activity
99.6

# input molecule: CO[C@H]1CC2CC[C@@H](C)[C@@](O)(O2)C(=O)C(=O)N2CCCC[C@H]2C(=O)OC([C@H](C)C[C@@H]2CC[C@@H](O)[C@H](OC)C2)CC(=O)[C@H](C)/C=C(\C)[C@@H](O)[C@@H](OC)C(=O)[C@H](C)C[C@H](C)/C=C/C=C/C=C/1C (stereo partly specified) ; wanted: its residual activity
96.6

# input molecule: `O=C1NC(=O)c2c1c1c3ccccc3n3c1c1c2c2ccccc2n1C1CCC3O1` ; wanted: its residual activity
27.5

# input molecule: `O=c1cc(N2CCOCC2)oc2c1ccc1ccccc12` ; wanted: its residual activity
92.7

# input molecule: `Nc1ncnc2c1c(-c1ccc(Oc3ccccc3)cc1)cn2C1CCCC1` ; wanted: its residual activity
10.1

# input molecule: `N#CC(C#N)=C(N)/C(C#N)=C/c1ccc(O)cc1` ; wanted: its residual activity
80

# input molecule: `O=S(=O)(c1cccc2cnccc12)N1CCCNCC1` ; wanted: its residual activity
104

# input molecule: `CCN(CC)CCNC(=O)c1c(C)[nH]c(/C=C2\C(=O)Nc3ccc(F)cc32)c1C` ; wanted: its residual activity
99

# input molecule: `CCOC(=O)c1c(C)[nH]c(/C=C2\C(=O)Nc3ccccc32)c1C` ; wanted: its residual activity
93.5

# input molecule: `c1ccc(-c2n[nH]c3c2oc2ccccc23)cc1` ; wanted: its residual activity
106

# input molecule: `CC(=O)c1ccc(N2CCOCC2)cc1O` ; wanted: its residual activity
90.6

# input molecule: `Cc1[nH]c(/C=C2\C(=O)Nc3ccc(S(=O)(=O)N(C)c4cccc(Cl)c4)cc32)c(C)c1C(=O)N1CCN(C)CC1` ; wanted: its residual activity
97.3

# input molecule: `COc1cc2ncnc(Nc3cccc(Cl)c3)c2cc1OC` ; wanted: its residual activity
88.6

# input molecule: `CC[n+]1c(/C=C/N(C)c2ccccc2)n(-c2ccccc2)c2ccc(-c3nc4ccccc4s3)cc21` ; wanted: its residual activity
108

# input molecule: `Nc1ncnc2[nH]nc(Nc3ccc(F)cc3)c12` ; wanted: its residual activity
89.6

# input molecule: `CCCC(=O)Oc1ccc2[nH]c(C(=O)c3cc4ccccc4[nH]3)cc2c1` ; wanted: its residual activity
97.4

# input molecule: `CCN(CC)C(=O)c1ccc(Nc2nc(OCC3CCCCC3)c3nc[nH]c3n2)cc1` ; wanted: its residual activity
42.9

# input molecule: `Nc1ccc2ncnc(NCCc3ccc(Oc4ccccc4)cc3)c2c1` ; wanted: its residual activity
102

# input molecule: `Cc1ccc(Nc2nccc(N(C)c3ccc4c(C)n(C)nc4c3)n2)cc1S(N)(=O)=O` ; wanted: its residual activity
93.4

* * *

# Measured On: MARK4 (human) (UniProt Q96L34)
# Sequence (Q96L34 whole entry, looked up): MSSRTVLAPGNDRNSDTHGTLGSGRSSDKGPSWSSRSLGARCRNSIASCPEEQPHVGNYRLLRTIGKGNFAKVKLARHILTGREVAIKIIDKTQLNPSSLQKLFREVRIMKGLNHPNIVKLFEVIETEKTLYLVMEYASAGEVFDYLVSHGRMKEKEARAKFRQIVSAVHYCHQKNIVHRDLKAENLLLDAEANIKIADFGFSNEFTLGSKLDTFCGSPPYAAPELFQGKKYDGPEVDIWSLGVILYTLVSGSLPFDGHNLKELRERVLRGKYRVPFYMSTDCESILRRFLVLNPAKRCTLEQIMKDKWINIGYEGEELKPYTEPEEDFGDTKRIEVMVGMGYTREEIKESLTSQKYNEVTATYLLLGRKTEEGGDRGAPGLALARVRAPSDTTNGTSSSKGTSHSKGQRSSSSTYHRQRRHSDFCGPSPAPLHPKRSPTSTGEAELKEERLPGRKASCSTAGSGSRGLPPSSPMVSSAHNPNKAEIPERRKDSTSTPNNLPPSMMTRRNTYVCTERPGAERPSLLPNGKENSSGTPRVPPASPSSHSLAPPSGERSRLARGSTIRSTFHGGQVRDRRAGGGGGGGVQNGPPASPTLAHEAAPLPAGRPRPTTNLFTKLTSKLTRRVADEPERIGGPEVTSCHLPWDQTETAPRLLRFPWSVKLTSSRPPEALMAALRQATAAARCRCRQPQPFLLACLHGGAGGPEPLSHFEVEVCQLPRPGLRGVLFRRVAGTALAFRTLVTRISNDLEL
# Assay Notes: radiometric filter-binding kinase assay, Kinase HotSpot
# Condition: compound 0.5 µM; ATP 10 µM
Test Readout: residual activity
Please answer in the form of a number followed by its unit of measurement.

# input compound: CO[C@H]1CC2CC[C@@H](C)[C@@](O)(O2)C(=O)C(=O)N2CCCC[C@H]2C(=O)OC([C@H](C)C[C@@H]2CC[C@@H](O)[C@H](OC)C2)CC(=O)[C@H](C)/C=C(\C)[C@@H](O)[C@@H](OC)C(=O)[C@H](C)C[C@H](C)/C=C/C=C/C=C/1C (some centres undefined) ; wanted: its residual activity
99.1%

# input compound: `N#CC(C#N)=C(N)/C(C#N)=C/c1ccc(O)cc1` ; wanted: its residual activity
94.3%

# input compound: `Cc1ccc(S(=O)(=O)/C=C/C#N)cc1` ; wanted: its residual activity
99%

# input compound: `N#C/C(=C(/N)Sc1ccc(N)cc1)c1ccccc1C(F)(F)F` ; wanted: its residual activity
101%

# input compound: `Nc1ncnc2c1c(-c1ccc(Oc3ccccc3)cc1)cn2C1CCCC1` ; wanted: its residual activity
85.2%

# input compound: `COc1cc2ncnc(Nc3cccc(Cl)c3)c2cc1OC` ; wanted: its residual activity
98.5%

# input compound: `O=C1NC(=O)/C(=C/c2ccc3c(c2)OC(F)(F)O3)S1` ; wanted: its residual activity
97.8%

# input compound: `Nc1cccc(-c2cc3c(Oc4cccc(O)c4)ncnc3[nH]2)c1` ; wanted: its residual activity
68.8%

# input compound: `O=C1NC(=O)c2c1c1c3ccccc3n3c1c1c2c2ccccc2n1C1CCC3O1` ; wanted: its residual activity
5.31%
